# Tested on: SF-539 CNS
# Test summary: NCI tumour cell line growth inhibition, 48 h
Quantity kind: TGI

// known answers, use as guide
O=C([CH-]C(=O)c1ccccc1)c1ccccc1.O=C([CH-]C(=O)c1ccccc1)c1ccccc1.O=C([CH-]C(=O)c1ccccc1)c1ccccc1.[Nd+3].[OH3+]: 45.9 µM
OCCCOC(c1ccccc1)(c1ccccc1)c1ccccc1: > 100 µM
CCCc1c(CC)c(=N)c2ccccc2n1C: > 100 µM

We now examine a further compound.
Task: Test system SF-539 CNS; read-out TGI; what value for CCO/C=C/C(C)C1(C(=O)OCC)CCCCC1=O (centres undefined) ?
Result: > 100 µM
